Items are presented alongside their recorded pIC50.
Target Or System: BMPR2 (Homo sapiens, UniProt Q13873)
Sequence (Q13873 27-1038): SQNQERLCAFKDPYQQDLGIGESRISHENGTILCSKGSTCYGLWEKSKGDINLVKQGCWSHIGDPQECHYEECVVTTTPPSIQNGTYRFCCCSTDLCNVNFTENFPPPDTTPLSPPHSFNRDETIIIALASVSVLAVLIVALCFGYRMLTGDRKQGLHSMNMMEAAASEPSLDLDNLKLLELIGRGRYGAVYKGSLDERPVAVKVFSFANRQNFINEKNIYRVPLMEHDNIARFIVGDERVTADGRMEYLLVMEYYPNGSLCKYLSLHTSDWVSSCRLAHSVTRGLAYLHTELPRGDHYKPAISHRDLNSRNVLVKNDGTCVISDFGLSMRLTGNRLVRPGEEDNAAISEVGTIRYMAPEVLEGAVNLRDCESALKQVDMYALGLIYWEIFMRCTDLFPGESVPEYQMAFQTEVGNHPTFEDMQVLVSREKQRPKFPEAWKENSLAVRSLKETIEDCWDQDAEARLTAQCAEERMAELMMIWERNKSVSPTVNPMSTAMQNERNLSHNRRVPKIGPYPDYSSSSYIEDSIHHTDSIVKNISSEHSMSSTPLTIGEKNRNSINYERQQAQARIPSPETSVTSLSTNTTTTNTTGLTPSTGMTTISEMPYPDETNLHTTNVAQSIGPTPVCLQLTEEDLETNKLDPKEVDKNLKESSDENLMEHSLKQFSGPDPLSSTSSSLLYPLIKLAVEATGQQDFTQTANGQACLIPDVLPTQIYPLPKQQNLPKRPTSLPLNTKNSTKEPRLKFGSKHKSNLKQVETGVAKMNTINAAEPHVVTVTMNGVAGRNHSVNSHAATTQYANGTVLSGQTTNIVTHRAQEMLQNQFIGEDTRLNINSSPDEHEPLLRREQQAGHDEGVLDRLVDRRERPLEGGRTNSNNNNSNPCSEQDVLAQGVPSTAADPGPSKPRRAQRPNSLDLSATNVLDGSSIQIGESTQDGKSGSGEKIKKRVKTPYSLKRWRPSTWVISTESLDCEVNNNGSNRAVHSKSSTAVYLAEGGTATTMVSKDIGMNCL
pIC50: −log10 of the molar value.

# Molecular String, Target Or System, pIC50
measured = [
    ("c1ccc2c(-c3cnn4cc(N5CCN(C6CCNCC6)CC5)cnc34)ccnc2c1", "BMPR2 (Homo sapiens, UniProt Q13873)", "< 5.00"),
]

Continue with the next molecule.
Name the recorded pIC50 of the item c1ccc2c(-c3cnn4cc(-c5ccc(N6CCNCC6)cc5)cnc34)ccnc2c1 in your answer. < 5.00

---

Target Or System: ALK3 (Homo sapiens)
Construct: purchased Life technology (Fredrick, Md.) and/or CARNA BIOSCIENCES Inc. (Kobe, Japan)
Sequence (P36894 24-532): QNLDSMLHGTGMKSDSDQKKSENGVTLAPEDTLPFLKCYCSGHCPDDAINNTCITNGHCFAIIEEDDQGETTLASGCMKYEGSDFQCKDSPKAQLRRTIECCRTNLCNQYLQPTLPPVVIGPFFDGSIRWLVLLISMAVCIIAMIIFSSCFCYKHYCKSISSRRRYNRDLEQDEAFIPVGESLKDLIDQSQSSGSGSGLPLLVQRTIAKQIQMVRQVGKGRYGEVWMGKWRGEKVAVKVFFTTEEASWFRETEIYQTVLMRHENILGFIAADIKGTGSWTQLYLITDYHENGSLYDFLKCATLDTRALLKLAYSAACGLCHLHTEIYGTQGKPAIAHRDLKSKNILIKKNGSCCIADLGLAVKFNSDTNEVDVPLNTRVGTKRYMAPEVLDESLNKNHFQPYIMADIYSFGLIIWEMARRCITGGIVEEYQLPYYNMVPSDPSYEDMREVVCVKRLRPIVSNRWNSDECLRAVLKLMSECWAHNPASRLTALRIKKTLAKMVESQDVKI
Assay Details: TR-FRET enzymatic assay, ALK3 kinase, 1536-well
Format: biochemical
Condition: 10 nM ALK, Ulight topo II substrate 50 nM, ATP 10 uM (Table 1)
Measured Metric: IC50 (nM)
Numbers only; they are read as nM.

Some solved entries appear below for comparison.
# Compound, Measured Metric, Meas Value
rows = [
    ("Cc1cc(-c2cnn3cc(N4CCC(N5CCN(C)CC5)CC4)cnc23)c2ccccc2n1 [Compound 8]", "IC50", 1240),
    ("Cc1cc(-c2cnn3cc(N4CCC(N5CCOCC5)CC4)cnc23)c2ccccc2n1 [Compound 11]", "IC50", 1280),
    ("Cc1cc(-c2cnn3cc(N4CCC(N5CCNCC5)CC4)cnc23)c2ccccc2n1 [Compound 34]", "IC50", 1870),
]

Give IC50; test system ALK3 (Homo sapiens); compound COc1cc2c(-c3cnn4cc(N5CCC(N6CCN(C)CC6)CC5)cnc34)ccnc2cc1F [Compound 15] 2820

---

Target Or System: ALK2 (Mus musculus)
Construct: endogenous in cells
Sequence (P37172 21-509): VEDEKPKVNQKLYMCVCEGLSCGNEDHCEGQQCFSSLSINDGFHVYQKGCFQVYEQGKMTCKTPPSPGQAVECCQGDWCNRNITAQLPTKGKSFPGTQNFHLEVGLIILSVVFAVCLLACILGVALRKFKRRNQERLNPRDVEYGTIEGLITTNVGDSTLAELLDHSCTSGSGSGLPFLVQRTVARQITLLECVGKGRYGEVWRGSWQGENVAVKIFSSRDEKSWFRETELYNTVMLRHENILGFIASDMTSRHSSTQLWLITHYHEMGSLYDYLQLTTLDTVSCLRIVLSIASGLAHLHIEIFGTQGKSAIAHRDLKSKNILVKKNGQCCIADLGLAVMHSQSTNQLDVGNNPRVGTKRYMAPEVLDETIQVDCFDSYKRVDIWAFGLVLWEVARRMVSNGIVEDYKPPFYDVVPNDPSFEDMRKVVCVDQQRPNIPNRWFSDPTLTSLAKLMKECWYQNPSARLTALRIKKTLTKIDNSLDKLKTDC
Assay Details: Luciferase reporter gene assay for ALK2 activity (C2C12 BRE-Luc SMAD1/5/8 reporter, BMP6 agonist)
Condition: BMP6 50 ng/mL
Measured Metric: IC50 (nM)
Numbers only; they are read as nM.

Some solved entries appear below for comparison.
# Compound, IC50, nM
data = [
    ("COc1cc2c(-c3cnn4cc(N5CCC(N6CCN(C)CC6)C(F)C5)cnc34)ccnc2cc1F (centres unmarked) [Compound 47]", 76),
    ("COc1cc2c(-c3cnn4cc(N5CCC(N6CC7CCC(C6)N7)CC5)cnc34)ccnc2cc1F [Compound 52]", 29),
    ("NC(=O)c1cccc2c(-c3cnn4cc(N5CCC(N6CCOCC6)CC5)cnc34)cccc12 [Compound 13]", 56),
    ("Cc1cc(-c2cnn3cc(N4CCN(c5ccncc5)CC4)cnc23)c2ccccc2n1 [Compound 27]", 7),
    ("COc1cc2c(-c3cnn4cc(N5CC6(CN(C)C6)C5)cnc34)ccnc2cc1F [Compound 282]", 10),
    ("COc1cc2c(-c3cnn4cc(N5CCC6(CC5)CN(C)C6)cnc34)ccnc2cc1F [Compound 290]", 12),
]

Name the recorded IC50 of the item Cc1cc(-c2cnn3cc(N4CCN(CCN5CCOCC5)CC4)cnc23)c2ccccc2n1 [Compound 19] in your answer. 113

---

Target Or System: ALK1 (Homo sapiens, UniProt P37023)
Construct: purchased Life technology (Fredrick, Md.) and/or CARNA BIOSCIENCES Inc. (Kobe, Japan)
Sequence (P37023 22-503): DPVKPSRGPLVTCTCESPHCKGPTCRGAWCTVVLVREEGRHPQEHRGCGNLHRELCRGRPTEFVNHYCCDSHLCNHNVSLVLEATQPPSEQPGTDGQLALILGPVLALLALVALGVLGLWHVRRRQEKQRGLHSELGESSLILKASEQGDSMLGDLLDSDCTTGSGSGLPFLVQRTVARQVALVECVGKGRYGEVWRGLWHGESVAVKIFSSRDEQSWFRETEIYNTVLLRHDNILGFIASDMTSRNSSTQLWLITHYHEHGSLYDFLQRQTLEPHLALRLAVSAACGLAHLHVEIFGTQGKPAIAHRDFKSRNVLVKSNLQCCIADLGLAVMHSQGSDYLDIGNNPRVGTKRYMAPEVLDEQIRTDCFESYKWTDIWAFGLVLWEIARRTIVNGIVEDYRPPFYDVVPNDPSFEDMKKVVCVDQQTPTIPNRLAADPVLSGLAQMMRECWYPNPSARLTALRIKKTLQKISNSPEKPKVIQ
Assay Details: TR-FRET enzymatic assay, ALK1 kinase, 1536-well
Format: biochemical
Condition: TR-FRET, 10 nM ALK, Ulight topo II substrate 50 nM, ATP 10 uM (Table 1)
Items are presented alongside their recorded IC50.
Numbers only; they are read as nM.

Some solved entries appear below for comparison.
# Molecular String, Target Or System, Value Unit, IC50
records = [
    ("COc1cc2c(-c3cnn4cc(N5CCC(N6CCN(C)CC6)CC5)cnc34)ccnc2cc1F", "ALK1 (Homo sapiens, UniProt P37023)", "nM", 1520),
    ("Cc1cc(-c2cnn3cc(N4CCC(N5CCNCC5)CC4)cnc23)c2ccccc2n1", "ALK1 (Homo sapiens, UniProt P37023)", "nM", 671),
    ("Cc1cc(-c2cnn3cc(N4CCC(N5CCOCC5)CC4)cnc23)c2ccccc2n1", "ALK1 (Homo sapiens, UniProt P37023)", "nM", 269),
]

Name the recorded IC50 of the item Cc1cc(-c2cnn3cc(N4CCC(N5CCN(C)CC5)CC4)cnc23)c2ccccc2n1 in your answer. 325

---

Target Or System: ALK2 (Mus musculus)
Construct: endogenous in cells
Assay Details: Luciferase reporter gene assay for ALK2 activity (C2C12 BRE-Luc SMAD1/5/8 reporter, BMP6 agonist)
Condition: BMP6 50 ng/mL
Items are presented alongside their recorded IC50.

Some solved entries appear below for comparison.
# Molecular String, Measured Metric, Meas Value
data = [
    ("CN1CCN(C2CN(c3cnc4c(N5CCN(C(=O)C6CC6)CC5)cnn4c3)C2)CC1", "IC50", "> 1000 nM"),
    ("Cc1cc(-c2cnn3cc(N4CCC(N5CCN(C)CC5)CC4)cnc23)c2ccc(C(F)(F)F)cc2n1", "IC50", "> 1000 nM"),
]

Continue with the next compound.
Name the recorded IC50 of the item COc1cc2c(-c3nnc4cc(N5CCC(N6CCN(C)CC6)CC5)ccn34)ccnc2cc1F in your answer. > 1000 nM

---

Items are presented alongside their recorded pIC50.
Target Or System: ALK2 (Mus musculus)
Construct: endogenous in cells
Assay Details: Luciferase reporter gene assay for ALK2 activity (C2C12 BRE-Luc SMAD1/5/8 reporter, BMP6 agonist)
Condition: BMP6 50 ng/mL
pIC50 (log units): -log10 of the concentration in mol/L.

# Molecular String, Meas Value
data = [
    ("Cc1cc(-c2cnn3cc(N4CC(N5CCN(C)CC5)C4)cnc23)c2cc(F)cc(F)c2n1", 7.48),
]

Name the recorded pIC50 of the item COc1cc2c(-c3cnn4cc(N5CCN(CC(C)(C)O)CC5)cnc34)ccnc2cc1F in your answer. 7.03

Name the recorded pIC50 of the item CN1CCN(C2CCN(c3cnc4c(-c5cc(N)nc6ccccc56)cnn4c3)CC2)CC1 in your answer. 7.28

Name the recorded pIC50 of the item COc1cc2c(-c3cnn4cc(N5CCC(N)CC5)cnc34)ccnc2cc1F in your answer. 7.24

Name the recorded pIC50 of the item Cc1cc(-c2cnn3cc(N4CCN(C5CCNCC5)CC4)cnc23)c2ccccc2n1 in your answer. 6.84

Name the recorded pIC50 of the item COc1cc(F)c2nccc(-c3cnn4cc(N5CC(N6CCN(C)CC6)C5)cnc34)c2c1 in your answer. 8.10

Name the recorded pIC50 of the item COc1cc2c(-c3cnn4cc(N5CCC(N6CCN(C)CC6)CC5)cnc34)ccnc2cc1O in your answer. 7.49

---

Items are presented alongside their recorded IC50.
Target Or System: ALK2 (Mus musculus)
Construct: endogenous in cells
Assay Details: Luciferase reporter gene assay for ALK2 activity (C2C12 BRE-Luc SMAD1/5/8 reporter, BMP6 agonist)
Condition: BMP6 50 ng/mL

Some solved entries appear below for comparison.
# Compound, IC50
data = [
    ("COc1ccc2ncc(F)c(-c3cnn4cc(N5CCC(N6CCN(C)CC6)CC5)cnc34)c2c1 [Compound 271]", "> 3 µM"),
    ("CC(=O)Nc1ccc2nccc(-c3cnn4cc(N5CCC(N6CCN(C)CC6)CC5)cnc34)c2c1 [Compound 281]", "> 3 µM"),
]

Name the recorded IC50 of the item CN1CCN(C2CCN(c3cc(OC4CCOCC4)c4c(-c5cn[nH]c5)cnn4c3)CC2)CC1 [Compound 225] in your answer. > 1 µM
